A collection of binders and their measured Kd
# target.under.test: T1, Qk-1-STAR (mouse, UniProt Q9QYS9 7-214)
# T1 sequence: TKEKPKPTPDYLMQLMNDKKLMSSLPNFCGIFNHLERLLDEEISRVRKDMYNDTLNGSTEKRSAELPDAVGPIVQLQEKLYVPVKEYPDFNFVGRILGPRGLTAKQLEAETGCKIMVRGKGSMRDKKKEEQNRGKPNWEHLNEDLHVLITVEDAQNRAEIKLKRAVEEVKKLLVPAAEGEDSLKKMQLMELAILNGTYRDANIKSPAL
# procedure.details: EMSA; first shift (K1); 10 mM Tris pH 8.0, 25 mM NaCl, 0.1 mM EDTA, 0.1 mg/mL tRNA, 5 ug/mL heparin, 0.01% IGEPAL CA630, room temperature, 3 h; EMSA gel 6% native, 0.5x TBE, 4 C
# run.parameters: protein: recombinant; tags: MBP fusion; chain copies: 2; label: 5' 32P
recorded.endpoint: Kd (nM)

1) GACACACUAACCUCGGUGGAAAAAUAACCAU (ssRNA) [MBP:2 (WT)]; 24.5
2) GACACACUAACCUCGGUGGAAACUCUUACAU (ssRNA) [MBP:2-3'm2]; 69
